Overview of reported pEC50 across a group of binders:
Molecular target: T1, monkey CD22 on HEK293T-monkey CD22 cells (monkey)
T1 construct: full-length entry expressed on stably transfected HEK293T cells
T1 chain: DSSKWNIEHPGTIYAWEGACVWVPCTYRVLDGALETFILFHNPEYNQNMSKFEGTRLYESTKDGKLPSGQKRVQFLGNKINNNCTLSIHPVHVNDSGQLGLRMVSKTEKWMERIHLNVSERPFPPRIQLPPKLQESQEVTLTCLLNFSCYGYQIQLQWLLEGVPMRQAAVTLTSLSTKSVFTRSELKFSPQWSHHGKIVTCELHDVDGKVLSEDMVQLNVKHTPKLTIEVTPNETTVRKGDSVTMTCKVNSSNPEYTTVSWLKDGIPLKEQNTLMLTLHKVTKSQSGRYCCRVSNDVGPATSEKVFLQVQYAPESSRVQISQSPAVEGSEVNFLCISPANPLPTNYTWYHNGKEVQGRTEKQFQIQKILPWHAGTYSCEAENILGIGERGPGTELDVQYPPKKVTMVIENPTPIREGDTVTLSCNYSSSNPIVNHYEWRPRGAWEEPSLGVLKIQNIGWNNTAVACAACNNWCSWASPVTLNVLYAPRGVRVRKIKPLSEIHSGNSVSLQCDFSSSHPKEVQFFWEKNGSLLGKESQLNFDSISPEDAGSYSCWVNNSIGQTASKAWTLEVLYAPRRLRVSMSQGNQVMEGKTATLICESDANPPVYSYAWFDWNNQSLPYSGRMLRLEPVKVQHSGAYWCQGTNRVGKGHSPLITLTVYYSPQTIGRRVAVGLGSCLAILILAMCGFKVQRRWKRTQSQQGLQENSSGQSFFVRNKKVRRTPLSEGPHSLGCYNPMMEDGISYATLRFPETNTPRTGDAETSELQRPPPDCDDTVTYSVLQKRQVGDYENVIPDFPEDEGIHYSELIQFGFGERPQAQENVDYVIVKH
Experiment: FACS, HEK293T-monkey CD22 cells
Conceptually, pEC50 converts a concentration in mol/L into minus its log10.

[
  {
    "binder": "F1.62.10 (antibody, human IgG1, kappa, V domains shown, human-murine chimeric IgG1 kappa) VH: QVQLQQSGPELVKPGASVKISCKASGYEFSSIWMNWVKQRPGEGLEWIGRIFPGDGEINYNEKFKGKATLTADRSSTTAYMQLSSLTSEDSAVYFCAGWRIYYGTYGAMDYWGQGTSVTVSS VL: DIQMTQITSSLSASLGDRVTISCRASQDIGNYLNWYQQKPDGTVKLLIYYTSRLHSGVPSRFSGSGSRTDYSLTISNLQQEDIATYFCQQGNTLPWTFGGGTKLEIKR",
    "pEC50": 7.39
  },
  {
    "binder": "F1.224.1 (antibody, human IgG1, kappa, V domains shown, human-murine chimeric IgG1 kappa; VL name legible) VH: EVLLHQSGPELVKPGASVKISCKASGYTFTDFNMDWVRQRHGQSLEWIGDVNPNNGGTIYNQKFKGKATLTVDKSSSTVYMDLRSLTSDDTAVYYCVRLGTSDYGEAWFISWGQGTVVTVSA VL: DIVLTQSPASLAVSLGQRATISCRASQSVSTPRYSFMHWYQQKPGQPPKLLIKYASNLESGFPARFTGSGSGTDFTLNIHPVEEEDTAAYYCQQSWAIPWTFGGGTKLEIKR",
    "pEC50": 9.10
  }
]

Input F1.172.13 (antibody, human IgG1, kappa, V domains shown, human-murine chimeric IgG1 kappa) VH: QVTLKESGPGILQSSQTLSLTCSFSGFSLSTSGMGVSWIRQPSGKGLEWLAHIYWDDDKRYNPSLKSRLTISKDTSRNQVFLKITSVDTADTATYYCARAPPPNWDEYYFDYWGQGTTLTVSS VL: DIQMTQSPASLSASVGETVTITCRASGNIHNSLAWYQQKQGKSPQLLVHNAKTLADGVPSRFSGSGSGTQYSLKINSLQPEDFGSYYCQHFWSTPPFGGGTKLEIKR . Output pEC50: 9.33
